MEASUREMENT_PROTOCOL: log P determination by HPLC (reversed-phase C18, EEC Directive 79/831 Annex V.A8)
Format: physicochemical
MEASUREMENT_SETUP: reversed-phase C18 HPLC column, pH 2.3, pH 2.3, 0.1% aqueous phosphoric acid/acetonitrile gradient, 43° C
PROPERTY_LABEL: chromatographic logP

COMPOUND: CC(C)N1CCN(c2ccc(-c3ccc(C4CCC(c5c(F)cccc5F)=N4)cc3)cn2)CC1 (centres unmarked)
TEST_RESULT: 1.14

COMPOUND: N#CCc1ccc(-c2ccc(C3CCC(c4c(F)cccc4F)=N3)cc2)nc1 (centres unmarked)
TEST_RESULT: 1.74

COMPOUND: Fc1cccc(F)c1C1=NC(c2ccc(-c3ccc(-n4ccnc4)nc3)cc2)CC1 (centres unmarked)
TEST_RESULT: 1.28

COMPOUND: FC(F)=C(F)CCOc1ccc(-c2ccc(C3CCC(c4c(F)cccc4F)=N3)cc2)nn1 (centres unmarked)
TEST_RESULT: 2.95

COMPOUND: Fc1cccc(F)c1C1=NC(c2ccc(-c3cnc(N4CCC5(CC4)OCCO5)nc3)cc2)CC1 (centres unmarked)
TEST_RESULT: 2.51

COMPOUND: CCCN(CC)c1ccc(-c2ccc(C3CCC(c4c(F)cccc4F)=N3)cc2)nn1 (centres unmarked)
TEST_RESULT: 1.6

COMPOUND: Fc1cccc(F)c1C1=NC(c2ccc(-c3cnc(OC4CCCCC4)nc3)cc2)CC1 (centres unmarked)
TEST_RESULT: 3.67

COMPOUND: CN(c1ccc(Cl)nn1)S(=O)(=O)C(F)(F)F
TEST_RESULT: 2.18

COMPOUND: CCC(CC)N1CCN(c2ncc(-c3ccc(C4CCC(c5c(F)cccc5F)=N4)cc3)cn2)CC1 (centres unmarked)
TEST_RESULT: 2.13

COMPOUND: Fc1cccc(F)c1C1=NC(c2ccc(-c3ccc(N4CCN(c5cccc(C(F)(F)F)c5)CC4)nc3)cc2)CC1 (centres unmarked)
TEST_RESULT: 3

COMPOUND: CC(C)(C)C(=O)N(c1ccc(-c2ccc(C3CCC(c4c(F)cccc4F)=N3)cc2)nn1)C1CCCC1 (centres unmarked)
TEST_RESULT: 3.22

COMPOUND: CCC(C)N1CCN(c2ccc(-c3ccc(C4CCC(c5c(F)cccc5F)=N4)cc3)cn2)CC1 (centres unmarked)
TEST_RESULT: 1.3

COMPOUND: FC(F)Sc1ncc(-c2ccc(C3CCC(c4ccccc4Cl)=N3)cc2)cn1 (centres unmarked)
TEST_RESULT: 3.38

COMPOUND: Fc1cccc(F)c1C1=NC(c2ccc(-c3ccc(N4CCOCC4)nc3)cc2)CC1 (centres unmarked)
TEST_RESULT: 1.44

COMPOUND: CCOCCN1CCN(c2ccc(-c3ccc(C4CCC(c5c(F)cccc5F)=N4)cc3)cn2)CC1 (centres unmarked)
TEST_RESULT: 1.26

COMPOUND: CC(C)(C)C(=O)N1CCN(c2ncc(Br)cn2)CC1
TEST_RESULT: 2.86

COMPOUND: COCCN(CCC#N)c1ncc(-c2ccc(C3CCC(c4c(F)cccc4F)=N3)cc2)cn1 (centres unmarked)
TEST_RESULT: 2.45

###

MEASUREMENT_PROTOCOL: log P determination by HPLC (reversed-phase C18, EEC Directive 79/831 Annex V.A8)
Format: physicochemical
MEASUREMENT_SETUP: reversed-phase C18 HPLC column, pH 2.3, pH 2.3, 0.1% aqueous phosphoric acid/acetonitrile gradient, 43° C
Excerpt: Mobile phases for determination in the acidic range: 0.1% aqueous phosphoric acid, acetonitrile; linear gradient from 10% acetonitrile to 90% acetonitrile.
Entries are grouped by chromatographic logP into these classes: low: < 2; medium: ≥ 2 and < 3; high: ≥ 3

COMPOUND: CC(C)COc1ncc(-c2ccc(C3CCC(c4c(F)cccc4F)=N3)cc2)cn1 (stereo not drawn)
GROUP: high
--
COMPOUND: CC(C)COC(=O)c1ccc(-c2ccc(C3CCC(c4c(F)cccc4F)=N3)cc2)nc1 (stereo not drawn)
GROUP: high
--
COMPOUND: CCCN(CCC)c1ccc(Cl)nn1
GROUP: low
--
COMPOUND: CCC1CC(CC)CN(c2ncc(-c3ccc(C4CCC(c5c(F)cccc5F)=N4)cc3)cn2)C1 (stereo not drawn)
GROUP: high
--
COMPOUND: Fc1cccc(F)c1C1=NC(c2ccc(-c3cnc(Cc4ccccc4)nc3)cc2)CC1 (stereo not drawn)
GROUP: medium
--
COMPOUND: CCC(CC)N1CCN(c2ccc(-c3ccc(C4CCC(c5c(F)cccc5F)=N4)cc3)cn2)CC1 (stereo not drawn)
GROUP: low
--
COMPOUND: Fc1cccc(F)c1C1=NC(c2ccc(-c3ccc(N4CCCCC4)nc3)cc2)CC1 (stereo not drawn)
GROUP: low
--
COMPOUND: Cc1cccc(N2CCN(c3ncc(-c4ccc(C5CCC(c6c(F)cccc6F)=N5)cc4)cn3)CC2)c1C (stereo not drawn)
GROUP: high
--
COMPOUND: Cc1nc(-c2ccc(C3CCC(c4c(F)cccc4F)=N3)cc2)nc(C)c1Cl (stereo not drawn)
GROUP: high
--
COMPOUND: CC(C)N(Cc1ccc(-c2ccc(C3CCC(c4c(F)cccc4F)=N3)cc2)nc1)S(=O)(=O)C(F)(F)F (stereo not drawn)
GROUP: high
--
COMPOUND: COCCN(CCOC)c1ncc(-c2ccc(C3CCC(c4c(F)cccc4F)=N3)cc2)cn1 (stereo not drawn)
GROUP: medium
--
COMPOUND: Fc1ccc(CN2CCN(c3ncc(-c4ccc(C5CCC(c6c(F)cccc6F)=N5)cc4)cn3)CC2)cc1 (stereo not drawn)
GROUP: low
--
COMPOUND: CC(C)OC(=O)c1ccc(-c2ccc(C3CCC(c4c(F)cccc4F)=N3)cc2)nc1 (stereo not drawn)
GROUP: high
--
COMPOUND: CC(C)S(=O)(=O)c1ccc(-c2ccc(C3CCC(c4c(F)cccc4F)=N3)cc2)nn1 (stereo not drawn)
GROUP: low
--
COMPOUND: C=CCN(CC=C)c1ncc(-c2ccc(C3CCC(c4c(F)cccc4F)=N3)cc2)cn1 (stereo not drawn)
GROUP: high
--
COMPOUND: CCCOc1ncc(-c2ccc(C3CCC(c4c(F)cccc4F)=N3)cc2)cn1 (stereo not drawn)
GROUP: medium
--
COMPOUND: Fc1cccc(F)c1C1=NC(c2ccc(-c3ncccn3)cc2)CC1 (stereo not drawn)
GROUP: low
--
COMPOUND: CC(C)(C)c1ccc(CN2CCN(c3ncc(-c4ccc(C5CCC(c6c(F)cccc6F)=N5)cc4)cn3)CC2)cc1 (stereo not drawn)
GROUP: high
--
COMPOUND: CCCN(CC)c1ncc(Br)cn1
GROUP: high
--
COMPOUND: Fc1cccc(F)c1C1=NC(c2ccc(-c3ccc(OCC(F)(F)F)nn3)cc2)CC1 (stereo not drawn)
GROUP: high
--
COMPOUND: Fc1cccc(F)c1C1=NC(c2ccc(-c3ccc(OC(C(F)(F)F)C(F)(F)F)nn3)cc2)CC1 (stereo not drawn)
GROUP: high
--
COMPOUND: Fc1cccc(F)c1C1=NC(c2ccc(-c3cnc(N4CCN(c5ccccn5)CC4)nc3)cc2)CC1 (stereo not drawn)
GROUP: medium
--
COMPOUND: CN(c1ncc(-c2ccc(C3CCC(c4c(F)cccc4F)=N3)cc2)cn1)C1CCCCC1 (stereo not drawn)
GROUP: high
--
COMPOUND: Fc1cccc(F)c1C1=NC(c2ccc(-c3cnc(SCSC(F)(F)F)nc3)cc2)CC1 (stereo not drawn)
GROUP: high
--
COMPOUND: Fc1cccc(F)c1C1=N[C@@H](c2ccc(-c3ccc(C(F)(F)F)cn3)cc2)CC1
GROUP: high
--
COMPOUND: CN(C)c1ccc(-c2ccc(C3CCC(c4c(F)cccc4F)=N3)cc2)nn1 (stereo not drawn)
GROUP: low
--
COMPOUND: Fc1cccc(F)c1C1=NC(c2ccc(-c3cnc(NCc4ccco4)nc3)cc2)CC1 (stereo not drawn)
GROUP: medium
--
COMPOUND: Fc1cccc(F)c1C1=NC(c2ccc(-c3cnc(N4CCN(CCc5ccccc5)CC4)nc3)cc2)CC1 (stereo not drawn)
GROUP: low
--
COMPOUND: CC(=O)OCCCN(Cc1ccc(-c2ccc(C3CCC(c4c(F)cccc4F)=N3)cc2)nn1)C(C)=O (stereo not drawn)
GROUP: low
--
COMPOUND: Fc1cccc(F)c1C1=NC(c2ccc(-c3cnc(NC4CC4)nc3)cc2)CC1 (stereo not drawn)
GROUP: low

###

Quick list: chromatographic logP per entry.
MEASUREMENT_PROTOCOL: log P determination by HPLC (reversed-phase C18, EEC Directive 79/831 Annex V.A8)
Assay type: physicochemical
MEASUREMENT_SETUP: reversed-phase C18 HPLC column, pH 2.3, pH 2.3, 0.1% aqueous phosphoric acid/acetonitrile gradient, 43° C
PROPERTY_LABEL: chromatographic logP

COMPOUND: Cc1ccc(N2CCN(c3ncc(-c4ccc(C5CCC(c6c(F)cccc6F)=N5)cc4)cn3)CC2)cc1C (stereo not shown) [Example 116]
TEST_RESULT: 3.88
//
COMPOUND: Fc1cccc(F)c1C1=NC(c2ccc(-c3cnc(N4CCN(c5cccc(Cl)c5)CC4)nc3)cc2)CC1 (stereo not shown) [Example 136]
TEST_RESULT: 4.83
//
COMPOUND: CCCCCCC(=O)N(c1ccc(-c2ccc(C3CCC(c4c(F)cccc4F)=N3)cc2)nn1)C1CCCC1 (stereo not shown) [Example 58]
TEST_RESULT: 4.82
//
COMPOUND: CC(=O)c1ccc(-c2ccc(C3CCC(c4c(F)cccc4F)=N3)cc2)nc1 (stereo not shown) [Example 211]
TEST_RESULT: 2
